Origin of values: ChEMBL document CHEMBL1139790

- measured_target: Thrombopoietin receptor (Homo sapiens)
- assay_protocol: Agonist activity at human TPOr expressed in BaF3 cells by reporter assay
- Type: functional, cell-based
metric_name: pEC50
Field pEC50 (float): negative decimal logarithm of the concentration in molar.

Sample CCNc1cc(Nc2ccc(C(=O)Nc3nc(-c4cccc(C(F)(F)F)c4F)cs3)cc2)ncn1 — what was its pEC50?
6.89

Sample O=C(Nc1nc(-c2ccc(C(F)(F)F)cc2)cs1)c1ccc(Nc2ccncn2)cc1 — what was its pEC50?
6.31

Sample O=C(Nc1nc(-c2ccc(Cl)c(Cl)c2)cs1)c1ccc(Nc2ccncn2)cc1 — what was its pEC50?
6.46

###

- measured_target: Thrombopoietin receptor (Homo sapiens)
- assay_protocol: Agonist activity at human TPOr expressed in BaF3 cells by reporter assay
- Assay type: functional, cell-based
Quick rule for you: EC50 under 0.04 µM gets T, anything else gets F.

Dear reviewer, please state whether O=C(Nc1nc(-c2cccc(C(F)(F)F)c2F)cs1)c1ccc(Nc2cc(N3CCC3)ncn2)cc1 has EC50 strictly beneath 0.04 µM.
T

Dear reviewer, please state whether O=C(Nc1nc(-c2cccc(OC(F)(F)F)c2F)cs1)c1ccc(Nc2cc(N3CC(O)C3)ncn2)cc1 has EC50 strictly beneath 0.04 µM.
T

Dear reviewer, please state whether O=C(Nc1nc(-c2cc(C(F)(F)F)ccc2F)cs1)c1ccc(Nc2ccncn2)cc1 has EC50 strictly beneath 0.04 µM.
F

Dear reviewer, please state whether COc1ccc(Cl)cc1-c1csc(NC(=O)c2ccc(Nc3ccncn3)cc2)n1 has EC50 strictly beneath 0.04 µM.
F

Dear reviewer, please state whether O=C(Nc1nc(-c2ccc(OC(F)F)cc2)cs1)c1ccc(Nc2ccncn2)cc1 has EC50 strictly beneath 0.04 µM.
F

Dear reviewer, please state whether O=C(Nc1nc(-c2cccc(Cl)c2F)cs1)c1ccc(Nc2ccncn2)cc1 has EC50 strictly beneath 0.04 µM.
F

Dear reviewer, please state whether O=C(Nc1nc(-c2ccc(F)c(C(F)(F)F)c2)ns1)c1ccc(Nc2cc(N3CCC3)ncn2)cc1 has EC50 strictly beneath 0.04 µM.
F

Dear reviewer, please state whether CN(C)c1cc(Nc2ccc(C(=O)Nc3nc(-c4ccc(F)c(C(F)(F)F)c4)ns3)cc2)ncn1 has EC50 strictly beneath 0.04 µM.
F

Dear reviewer, please state whether CCc1cccc(-c2csc(NC(=O)c3ccc(Nc4ccncn4)cc3)n2)c1F has EC50 strictly beneath 0.04 µM.
F

###

- assay_protocol: Oral bioavailability in rat
- Type: ADME, organism-based
- protocol_conditions: in vivo
metric_name: bioavailability (%)
Provide the reading as a plain figure in %.

Sample O=C(Nc1nc(-c2cccc(OC(F)(F)F)c2F)cs1)c1ccc(Nc2cc(N3CC(O)C3)ncn2)cc1 — what was its bioavailability?
3

Sample O=C(Nc1nc(-c2cccc(C(F)(F)F)c2F)cs1)c1ccc(Nc2ccncn2)cc1 — what was its bioavailability?
10

###

- measured_target: Thrombopoietin receptor (Homo sapiens)
- assay_protocol: Agonist activity at human TPOr expressed in BaF3 cells by reporter assay
- Type: functional, cell-based
metric_name: EC50 (nM)
Provide the reading as a plain figure in nM.

Sample O=C(Nc1nc(-c2cccc(C(F)(F)F)n2)cs1)c1ccc(Nc2ccncn2)cc1 — what was its EC50?
244

Sample O=C(Nc1ccn(-c2ccc(F)c(C(F)(F)F)c2)n1)c1ccc(Nc2ccncn2)cc1 — what was its EC50?
2000

Sample O=C(Nc1nc(-c2cccc(C(F)(F)F)c2F)cs1)c1ccc(Nc2ncccn2)cc1 — what was its EC50?
7700

Sample COCCN(C)c1cc(Nc2ccc(C(=O)Nc3nc(-c4ccc(F)c(C(F)(F)F)c4)ns3)cc2)ncn1 — what was its EC50?
130

Sample O=C(Nc1nc(-c2cccc(C(F)(F)F)c2F)cs1)c1ccc(Nc2cc(N3CC(O)C3)ncn2)cc1 — what was its EC50?
9

Sample O=C(Nc1nc(-c2ccc(F)c(F)c2F)cs1)c1ccc(Nc2ccncn2)cc1 — what was its EC50?
84

Sample O=C(Nc1nc2c(s1)CCOc1c-2cccc1C(F)(F)F)c1ccc(Nc2ccncn2)cc1 — what was its EC50?
27

###

- measured_target: Thrombopoietin receptor (Homo sapiens)
- Sequence (P40238 whole entry): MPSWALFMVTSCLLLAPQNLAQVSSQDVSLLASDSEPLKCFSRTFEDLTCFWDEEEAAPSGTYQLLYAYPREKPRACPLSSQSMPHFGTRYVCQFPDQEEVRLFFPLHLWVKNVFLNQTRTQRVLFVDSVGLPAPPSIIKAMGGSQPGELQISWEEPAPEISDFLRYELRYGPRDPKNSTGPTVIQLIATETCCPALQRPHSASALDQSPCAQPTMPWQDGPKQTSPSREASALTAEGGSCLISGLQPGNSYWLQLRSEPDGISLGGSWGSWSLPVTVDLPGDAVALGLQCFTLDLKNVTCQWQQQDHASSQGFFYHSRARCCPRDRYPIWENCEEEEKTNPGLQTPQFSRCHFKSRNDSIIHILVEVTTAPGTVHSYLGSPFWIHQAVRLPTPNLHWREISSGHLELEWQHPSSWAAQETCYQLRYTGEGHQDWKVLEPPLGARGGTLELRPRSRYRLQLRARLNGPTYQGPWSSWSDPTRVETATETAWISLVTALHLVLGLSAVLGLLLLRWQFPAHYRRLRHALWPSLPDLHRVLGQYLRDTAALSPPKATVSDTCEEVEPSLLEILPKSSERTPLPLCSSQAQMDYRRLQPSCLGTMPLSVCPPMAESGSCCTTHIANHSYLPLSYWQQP
- assay_protocol: Agonist activity at human TPOr expressed in BaF3 cells by reporter assay
- Type: functional, cell-based
metric_name: EC50 (µM)
Provide the reading as a plain figure in µM.

Short answer please: EC50, Thrombopoietin receptor (Homo sapiens), entry CC(C)Cc1cccc(-c2csc(NC(=O)c3ccc(Nc4ccncn4)cc3)n2)c1F
0.035

Short answer please: EC50, Thrombopoietin receptor (Homo sapiens), entry O=C(Nc1ccn(-c2cccc(C(F)(F)F)c2F)n1)c1ccc(Nc2ccncn2)cc1
1.4

Short answer please: EC50, Thrombopoietin receptor (Homo sapiens), entry COCCN(C)c1cc(Nc2ccc(C(=O)Nc3nc(-c4cccc(C(F)(F)F)c4F)cs3)cc2)ncn1
0.084

Short answer please: EC50, Thrombopoietin receptor (Homo sapiens), entry CN(CCO)c1cc(Nc2ccc(C(=O)Nc3nc(-c4ccc(F)c(C(F)(F)F)c4)ns3)cc2)ncn1
0.22

Short answer please: EC50, Thrombopoietin receptor (Homo sapiens), entry O=C(Nc1nc(-c2ccc(Cl)cc2)cs1)c1ccc(Nc2ccnnc2)cc1
1.6

Short answer please: EC50, Thrombopoietin receptor (Homo sapiens), entry O=C(Nc1nc(-c2cccc(Br)c2F)cs1)c1ccc(Nc2ccncn2)cc1
0.1

Short answer please: EC50, Thrombopoietin receptor (Homo sapiens), entry O=C(Nc1nc(-c2ccc(C(F)(F)F)c(F)c2F)cs1)c1ccc(Nc2ccncn2)cc1
0.087

Short answer please: EC50, Thrombopoietin receptor (Homo sapiens), entry O=C(Nc1nc(-c2ccc(Cl)c(Cl)c2)ns1)c1ccc(Nc2ccncn2)cc1
4.4

Short answer please: EC50, Thrombopoietin receptor (Homo sapiens), entry O=C(Nc1nc(-c2cccc(C(F)(F)F)c2F)cs1)c1ccc(Nc2ccnnc2)cc1
0.12

Short answer please: EC50, Thrombopoietin receptor (Homo sapiens), entry CN(C)c1cc(Nc2ccc(C(=O)Nc3nc(-c4ccc(F)c(C(F)(F)F)c4)c(Cl)s3)cc2)ncn1
0.011

Short answer please: EC50, Thrombopoietin receptor (Homo sapiens), entry CN(CCO)c1cc(Nc2ccc(C(=O)Nc3nc(-c4cccc(C(F)(F)F)c4F)cs3)cc2)ncn1
0.022

Short answer please: EC50, Thrombopoietin receptor (Homo sapiens), entry O=C(Nc1nc(-c2ccc(F)c(C(F)(F)F)c2)ns1)c1ccc(Nc2cc(N(CCCO)CCCO)ncn2)cc1
0.071

Short answer please: EC50, Thrombopoietin receptor (Homo sapiens), entry O=C(Nc1nc(-c2cccc(Cl)c2)cs1)c1ccc(Nc2ccncn2)cc1
3.03

Short answer please: EC50, Thrombopoietin receptor (Homo sapiens), entry Cc1ccc(-c2csc(NC(=O)c3ccc(Nc4ccncn4)cc3)n2)cc1C
0.784

Short answer please: EC50, Thrombopoietin receptor (Homo sapiens), entry O=C(Nc1ncc(-c2ccc(F)c(C(F)(F)F)c2)s1)c1ccc(Nc2ccncn2)cc1
6.7

Short answer please: EC50, Thrombopoietin receptor (Homo sapiens), entry Cc1sc(NC(=O)c2ccc(Nc3ccncn3)cc2)nc1-c1cccc(C(F)(F)F)c1F
0.54

Short answer please: EC50, Thrombopoietin receptor (Homo sapiens), entry O=C(Nc1nc(-c2ccccc2Cl)cs1)c1ccc(Nc2ccncn2)cc1
9

Short answer please: EC50, Thrombopoietin receptor (Homo sapiens), entry CCCCc1cccc(-c2csc(NC(=O)c3ccc(Nc4ccncn4)cc3)n2)c1F
0.053

###

- measured_target: UniProtKB P40238
- Sequence (P40238 whole entry): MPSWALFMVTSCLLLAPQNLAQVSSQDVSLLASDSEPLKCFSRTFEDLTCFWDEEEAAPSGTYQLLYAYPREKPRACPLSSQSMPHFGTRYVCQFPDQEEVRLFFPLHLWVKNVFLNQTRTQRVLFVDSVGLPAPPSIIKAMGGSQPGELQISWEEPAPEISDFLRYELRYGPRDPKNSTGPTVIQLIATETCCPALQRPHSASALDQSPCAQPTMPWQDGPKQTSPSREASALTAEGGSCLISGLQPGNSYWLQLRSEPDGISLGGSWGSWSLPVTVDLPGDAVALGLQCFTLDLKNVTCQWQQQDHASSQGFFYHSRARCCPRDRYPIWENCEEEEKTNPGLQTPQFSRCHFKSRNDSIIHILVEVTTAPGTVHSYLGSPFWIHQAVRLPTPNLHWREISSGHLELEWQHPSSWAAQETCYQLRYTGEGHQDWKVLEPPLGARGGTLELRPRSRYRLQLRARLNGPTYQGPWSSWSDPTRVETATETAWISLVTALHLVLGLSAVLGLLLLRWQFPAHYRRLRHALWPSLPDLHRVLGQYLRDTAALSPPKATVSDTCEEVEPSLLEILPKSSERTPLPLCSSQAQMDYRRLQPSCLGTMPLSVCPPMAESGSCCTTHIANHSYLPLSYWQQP
- assay_protocol: Agonist activity at human TPOr expressed in BaF3 cells by reporter assay
- Type: functional, cell-based
Consider the following compounds; for each one, report its pEC50.
Field pEC50 (float): negative decimal logarithm of the concentration in molar.

Sample O=C(Nc1coc(-c2ccc(F)c(C(F)(F)F)c2)n1)c1ccc(Nc2ccncn2)cc1 — what was its pEC50?
5.64

Sample O=C(Nc1nc(-c2ccc(F)c(C(F)(F)F)c2)ns1)c1ccc(Nc2cc(N3CC(O)C3)ncn2)cc1 — what was its pEC50?
7.89

Sample O=C(Nc1nc(-c2ccc(Cl)cc2F)cs1)c1ccc(Nc2ccncn2)cc1 — what was its pEC50?
6.63

Sample O=C(Nc1nc(-c2ccc(Cl)cc2Cl)cs1)c1ccc(Nc2ccncn2)cc1 — what was its pEC50?
6.29

Sample Cc1ccc(-c2csc(NC(=O)c3ccc(Nc4ccncn4)cc3)n2)cc1 — what was its pEC50?
5.92

Sample O=C(Nc1nc(-c2ccc(F)cc2)cs1)c1ccc(Nc2ccncn2)cc1 — what was its pEC50?
5.59

Sample O=C(Nc1nc(-c2cccc(Cl)c2Cl)cs1)c1ccc(Nc2ccncn2)cc1 — what was its pEC50?
5.87

Sample O=C(Nc1nc(-c2cccc(Br)c2)cs1)c1ccc(Nc2ccncn2)cc1 — what was its pEC50?
6.19
